Source: ChEMBL document CHEMBL3507680

test protocol: Human HepG2 cell viability assay in 384 well format
Format: toxicity, cell-based
Parameters: dose 125 nL, time 70.5 hour; concentration not given beside the values
assay context: HepG2 cells, read-out: Inhibition
measure name: cytotoxicity at 70.5 h (%)
Number in %, nothing else.

Query: // lookup cytotoxicity at 70.5 h for CN(Cc1noc(C2CC2)n1)C1CCN(Cc2ncc[nH]2)C1 (configuration not stated)
Result: 12.2

Query: // lookup cytotoxicity at 70.5 h for CCc1nc(CN(C)C2CCN(CCOc3ccccc3)C2)no1 (configuration not stated)
Result: 0.0512

Query: // lookup cytotoxicity at 70.5 h for `CC(C)OCCN1CCN(c2ccc(Cl)cn2)CC1`
Result: -6.76

Query: // lookup cytotoxicity at 70.5 h for Fc1ccc2c(c1)C(NCc1nnc3n1CCCCC3)CCCO2 (configuration not stated)
Result: 3.88

Query: // lookup cytotoxicity at 70.5 h for `N#Cc1ccc(C(=O)N2CCC3(CC2)CC3)cc1`
Result: 4.59

Query: // lookup cytotoxicity at 70.5 h for `CN(C)CCn1c(=O)oc2ccc(NC(=O)c3cc(Cl)c[nH]3)cc21`
Result: -2.49

Query: // lookup cytotoxicity at 70.5 h for `CCNc1cc2c(nn1)CCN(C(=O)c1cc3cc(C)ccc3o1)C2`
Result: 5.36

Query: // lookup cytotoxicity at 70.5 h for N#Cc1cccc(S(=O)(=O)N2CCCCC2CCN2CCCC2=O)c1 (configuration not stated)
Result: -2.56

Query: // lookup cytotoxicity at 70.5 h for `CC(C)CC(=O)Nc1c(-c2ccc(F)cc2)ncn1C`
Result: 9.48

Query: // lookup cytotoxicity at 70.5 h for CC(CNC(=O)NCc1ccco1)N1CCc2sccc2C1 (configuration not stated)
Result: 36.1

Query: // lookup cytotoxicity at 70.5 h for O=C(COC1CCCC1)N1CCC(C(O)c2ccc(F)cc2)CC1 (configuration not stated)
Result: -8.09

Query: // lookup cytotoxicity at 70.5 h for `CC(=O)N1CCC(NC[C@H]2Cn3c(-c4ccccc4)cnc3CO2)CC1`
Result: -5.76
